scaled log2 fold change by entry:
B1: library; numbered along this chain (parent)
chain: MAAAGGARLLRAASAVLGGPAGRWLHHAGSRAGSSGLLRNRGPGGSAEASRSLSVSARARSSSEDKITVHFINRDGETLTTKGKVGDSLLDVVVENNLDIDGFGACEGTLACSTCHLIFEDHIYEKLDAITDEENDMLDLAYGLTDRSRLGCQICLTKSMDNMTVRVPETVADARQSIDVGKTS

Variants of: B1
Assay: scaled log2 fold change in cell abundance, elesclomol vs control (0 = silent mean, 1 = nonsense mean) (scaled log2 ratio); higher = higher viability under elesclomol (loss of FDX1 cuproptosis function);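 note: variant abundance is its share of total variant reads in each endpoint sample, from next-generation sequencing of the integrated ORF PCR-amplified out of genomic DNA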
Conditions: with HEK293T FDX1 KO; elesclomol 40 nM; glucose 10 mM; 11 days
propertyMeasured: scaled log2 fold change

{"changes": "C155L", "propertyMeasured": "scaled log2 fold change", "dataValue": -0.359}
{"changes": "R51S", "propertyMeasured": "scaled log2 fold change", "dataValue": -0.516}
{"changes": "G42W", "propertyMeasured": "scaled log2 fold change", "dataValue": 1}
{"changes": "G143E", "propertyMeasured": "scaled log2 fold change", "dataValue": -0.391}
{"changes": "E134G", "propertyMeasured": "scaled log2 fold change", "dataValue": 0.684}
{"changes": "V180F", "propertyMeasured": "scaled log2 fold change", "dataValue": 0.0689}
{"changes": "F103I", "propertyMeasured": "scaled log2 fold change", "dataValue": 0.171}
{"changes": "S52H", "propertyMeasured": "scaled log2 fold change", "dataValue": 0.41}
{"changes": "L79H", "propertyMeasured": "scaled log2 fold change", "dataValue": 0.119}
{"changes": "A12F", "propertyMeasured": "scaled log2 fold change", "dataValue": -0.148}
{"changes": "D161K", "propertyMeasured": "scaled log2 fold change", "dataValue": 0.181}
{"changes": "L150Y", "propertyMeasured": "scaled log2 fold change", "dataValue": 0.392}
{"changes": "K66G", "propertyMeasured": "scaled log2 fold change", "dataValue": 0.245}
{"changes": "I72T", "propertyMeasured": "scaled log2 fold change", "dataValue": -0.405}
{"changes": "T78R", "propertyMeasured": "scaled log2 fold change", "dataValue": -0.932}
{"changes": "D173E", "propertyMeasured": "scaled log2 fold change", "dataValue": 1.27}
{"changes": "L90D", "propertyMeasured": "scaled log2 fold change", "dataValue": 0.245}
{"changes": "L117P", "propertyMeasured": "scaled log2 fold change", "dataValue": 1.03}
{"changes": "A2F", "propertyMeasured": "scaled log2 fold change", "dataValue": -0.164}
{"changes": "D101N", "propertyMeasured": "scaled log2 fold change", "dataValue": -0.0138}
{"changes": "R147M", "propertyMeasured": "scaled log2 fold change", "dataValue": -0.232}
{"changes": "L156S", "propertyMeasured": "scaled log2 fold change", "dataValue": 0.852}
